# System: HS 578T breast
# Protocol Details: NCI tumour cell line growth inhibition, 48 h; in the data active = GI50 below about 0.43 µM; inactive = the rest
Outcome codes: active, inactive

Compound: Cc1cc(N2CCN(C)CC2)nc(NCc2cc(Nc3ccnc4cc(Cl)ccc34)ccc2F)n1
System Name: HS 578T breast
Label: inactive
--
Compound: O=C(/C=C1\C(=O)N(Cc2ccc([N+](=O)[O-])cc2)c2ccccc21)c1ccc(OCCN2CCCCC2)cc1
System Name: HS 578T breast
Label: inactive
--
Compound: O=C(Cn1c(=O)c(-c2ccccc2)nc2ccccc21)c1ccc(Cl)cc1
System Name: HS 578T breast
Label: inactive
--
Compound: COc1cc(-c2n/c(=C\c3c(O)[nH]c4ccc(Cl)cc34)cc3c2=Nc2ccccc2-3)cc(OC)c1OC
System Name: HS 578T breast
Label: inactive
--
Compound: CN(CCC#N)c1ccc(/C=C(\C#N)c2cccc(C(F)(F)F)c2)cc1
System Name: HS 578T breast
Label: inactive
--
Compound: Cc1onc(-c2c(F)cccc2Cl)c1-c1ncc(-c2ccc(Cl)cc2)o1
System Name: HS 578T breast
Label: inactive
--
Compound: CN1CCN(CCCOc2cccc3nc(Nc4ccc(Cl)c(F)c4)ccc23)CC1
System Name: HS 578T breast
Label: inactive
--
Compound: COc1cc(/C=N/Nc2ncnc3c2cnn3C(C)C)ccc1O
System Name: HS 578T breast
Label: inactive
--
Compound: COc1cc(N2CCN(C(C)C)CC2)ccc1Nc1nc(Nc2cccc3ncccc23)c2cc[nH]c2n1
System Name: HS 578T breast
Label: inactive
--
Compound: CC[C@@]1(OC(=O)CN)C(=O)OCc2c1cc1n(c2=O)Cc2cc3cc4c(cc3nc2-1)OCO4
System Name: HS 578T breast
Label: active
--
Compound: Cc1oc2nc[nH]c(=O)c2c1C(=O)/C=C/c1ccc(Cl)cc1
System Name: HS 578T breast
Label: inactive
--
Compound: O=C(COc1ccc(/C=C2\Oc3ccccc3C2=O)cc1)Nc1nccs1
System Name: HS 578T breast
Label: inactive
--
Compound: O=C(/C=C/C12c3ccccc3C(c3ccccc31)C1C(=O)N(c3ccccc3)C(=O)C12)c1ccc(Cl)cc1 (centres undefined)
System Name: HS 578T breast
Label: inactive
--
Compound: CCOC(=O)C1=C(C)NC2SC(=O)/C(=C\c3ccccc3Cl)N2C1c1ccccc1 (centres undefined)
System Name: HS 578T breast
Label: inactive

====

# Test system: HOP-62 NSCLC
# Protocol Details: NCI tumour cell line growth inhibition, 48 h
Listed below: TGI values for each entry.
Quantity: TGI

Compound: CC1=CCC2(C#N)CCC1C2O (stereo not given)
Quantity: TGI
Value Measured: > 100 µM

Compound: C[C@]12CCC3c4ccc(O)cc4CC[C@H]3C1CC(=O)N(N)C2=O (stereo not given in full)
Quantity: TGI
Value Measured: > 100 µM

Compound: O=S(=O)(C(=Ic1ccccc1)S(=O)(=O)C(F)(F)C(F)(F)C(F)(F)C(F)(F)F)C(F)(F)C(F)(F)C(F)(F)C(F)(F)F
Quantity: TGI
Value Measured: 30.7 µM

Compound: COc1cc([N+](=O)[O-])c(S(=O)(=O)O)cc1NS(=O)(=O)c1ccc(C)cc1
Quantity: TGI
Value Measured: > 100 µM

Compound: C=CCn1c(=O)c2cnc(Nc3ccc(N4CCN(C)CC4)cc3)nc2n1-c1ccc2c(n1)[C@@](O)(CC)CC2
Quantity: TGI
Value Measured: 13.8 µM

Compound: O=C(O)c1c[nH]c2c(=O)[nH]cnc12
Quantity: TGI
Value Measured: > 100 µM

Compound: O=[N+]([O-])c1ccc(N=Nc2c(O)ccc3cc(S(=O)(=O)O)ccc23)cc1
Quantity: TGI
Value Measured: > 100 µM

Compound: CCCCSN1C(=O)c2ccccc2C1=S
Quantity: TGI
Value Measured: > 100 µM

Compound: Cc1nc(Cl)c(Cl)c(Cl)n1
Quantity: TGI
Value Measured: 0.974 µM

Compound: C=C(C)[C@@H]1C[C@H]2O[C@](O)(C(=C)CC(=O)/C=C(/C)C[C@@H]3OC(=O)[C@]24O[C@@H]34)[C@H]1O
Quantity: TGI
Value Measured: > 100 µM
